UniProtKB Q9GJU1: reported Ki for various molecules.
Sequence (Q9GJU1 whole entry): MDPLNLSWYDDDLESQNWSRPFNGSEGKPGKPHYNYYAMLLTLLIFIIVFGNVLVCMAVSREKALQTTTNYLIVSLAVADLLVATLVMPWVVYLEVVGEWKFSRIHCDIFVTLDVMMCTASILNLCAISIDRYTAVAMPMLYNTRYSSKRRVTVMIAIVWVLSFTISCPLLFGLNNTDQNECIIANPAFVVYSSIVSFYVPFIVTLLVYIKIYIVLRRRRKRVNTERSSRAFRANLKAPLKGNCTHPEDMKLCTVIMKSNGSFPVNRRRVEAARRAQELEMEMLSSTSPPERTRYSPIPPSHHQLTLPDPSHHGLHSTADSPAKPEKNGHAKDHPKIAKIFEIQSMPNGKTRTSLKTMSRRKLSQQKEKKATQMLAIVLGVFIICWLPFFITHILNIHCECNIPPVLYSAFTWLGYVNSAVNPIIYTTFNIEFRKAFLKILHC
Numbers only, in nM.

Some molecules with known Ki results, for comparison:
# Molecule, Assayed Target, Measure Unit, Ki
measured = [
    ("O=C(c1ccc(F)cc1)C1CCN(CCn2c(=O)[nH]c3ccccc3c2=O)CC1", "UniProtKB Q9GJU1", "nM", 166),
    ("CN1CCN2c3ccccc3Cc3ccccc3[C@H]2C1 [MIANSERIN (+)]", "UniProtKB Q9GJU1", "nM", 161),
]

Would you kindly look at the next entry?
Query :: Supply measured Ki of OCCN1CCN(CC/C=C2/c3ccccc3Sc3ccc(C(F)(F)F)cc32)CC1 in your reply.
Result :: 30
